Tested on: Hepatotoxicity
For each of the compounds below, state its DILI positive/negative.
Lab note: jot down the number only; don't add units.

Complete the entry with DILI positive/negative for NC(=O)OCC(COC(N)=O)c1ccccc1 [FELBAMATE]
1

Complete the entry with DILI positive/negative for C#CCN(C)Cc1ccccc1
0

Complete the entry with DILI positive/negative for CC[C@]1(O)CC[C@H]2[C@@H]3CCC4=CCCC[C@@H]4[C@H]3CC[C@@]21C
1

---

Tested on: Hepatotoxicity
Outcome label depends on HepSE_Combined Scores relative to 2: at/above gives Criterion met, below gives Criterion not met.

hey, is HepSE_Combined Scores for this one >= 2? CC(C)C(=O)OCC(=O)[C@@]12O[C@H](C3CCCCC3)O[C@@H]1C[C@H]1[C@@H]3CCC4=CC(=O)C=C[C@]4(C)[C@H]3[C@@H](O)C[C@@]12C [CICLESONIDE]
Criterion not met

hey, is HepSE_Combined Scores for this one >= 2? CCCCCOC(=O)Nc1nc(=O)n([C@@H]2O[C@H](C)[C@@H](O)[C@H]2O)cc1F
Criterion met

hey, is HepSE_Combined Scores for this one >= 2? Cc1oncc1C(=O)Nc1ccc(C(F)(F)F)cc1 [LEFLUNOMIDE]
Criterion met

hey, is HepSE_Combined Scores for this one >= 2? CN1CCN(C(=O)OC2c3nccnc3C(=O)N2c2ccc(Cl)cn2)CC1 (stereo not given)
Criterion met

hey, is HepSE_Combined Scores for this one >= 2? CC(C)(C)C(=O)OCOP(=O)(COCCn1cnc2c(N)ncnc21)OCOC(=O)C(C)(C)C
Criterion not met

hey, is HepSE_Combined Scores for this one >= 2? Nc1nc2c(ncn2COCCO)c(=O)[nH]1
Criterion met

hey, is HepSE_Combined Scores for this one >= 2? CC(=O)N[C@H]1[C@H]([C@H](O)[C@H](O)CO)OC(C(=O)O)=C[C@@H]1N=C(N)N
Criterion not met

hey, is HepSE_Combined Scores for this one >= 2? CC(=O)Oc1c(C)cc(OCC(O)CNC(C)C)c(C)c1C (stereo not given)
Criterion not met

hey, is HepSE_Combined Scores for this one >= 2? COCCCOc1cc(C[C@@H](C[C@H](N)[C@@H](O)C[C@H](C(=O)NCC(C)(C)C(N)=O)C(C)C)C(C)C)ccc1OC
Criterion not met
